Biological target: SPOP^MATH (Homo sapiens)
Sequence (O43791 28-166): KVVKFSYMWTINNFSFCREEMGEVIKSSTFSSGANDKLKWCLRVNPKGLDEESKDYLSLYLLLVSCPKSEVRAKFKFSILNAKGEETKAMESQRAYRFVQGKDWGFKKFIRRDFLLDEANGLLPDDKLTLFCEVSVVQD
METRIC NAME: IC50 (µM)

INSERT INTO assay_data (compound, experimental_system, metric_name, modifier, endpoint_result) VALUES
  ('Cc1nnc(SCC2=C(C(=O)O)N3C(=O)C(NC(=O)c4ccc(COc5ccccc5Cl)o4)C3SC2)s1 (centres unmarked)', 'SPOP^MATH (Homo sapiens)', 'IC50', '=', 4.51),
  ('C=CC1=C(C(=O)O)N2C(=O)[C@@H](NC(=O)CCC3CCCC3)[C@H]2SC1', 'SPOP^MATH (Homo sapiens)', 'IC50', '>', 100);

Entry source: paper PMC10349078
